- experimental-system: MAGI1_3, Q96QZ7
- Sequence (Q96QZ7 638-725): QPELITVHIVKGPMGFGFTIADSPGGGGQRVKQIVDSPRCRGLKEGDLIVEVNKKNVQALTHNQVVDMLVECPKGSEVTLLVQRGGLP
- assay-remarks: holdup assay
- Design: key: below the threshold = too weak to quantify, mostly under pKd 3.1 to 4
- condition-details: plain residues with an end cap or a label only (N-terminal biotin on a linker: ttds)
property-name: pKd

SGSRPSATVV [HPV73-E6, Q82005] = below the threshold
RLQRRRETQV [HPV18-E6, P06463] = below the threshold
RPLPRKVSQL [DOCK4, Q8N1I0] = below the threshold

Origin of the recorded values: paper PMC9482650
